Listed here: items and their measured pIC50.
# testSystem: recombinant human baculovirus-expressed GST-tagged FASN (Homo sapiens)
# Construct: GST
# testMethodNotes: biochemical
# runConditions: 5 nM FASN, 150 μM NADPH, 10 μM acetyl-CoA, 25 μM malonyl-CoA, 90 minutes incubation; read-out: IC50 data for Compounds of Formula I, Activity
pIC50: −log10 of the molar value. Where a name gives a salt, the structure may show the parent alone.
endpointName: pIC50

{"compound": "Cc1c(-c2ccc3c(c2)CCC2(CCN(C(N)=O)CC2)O3)ccc2c(O)ccnc12", "reportedMeasurement": "5.00 to 6.00"}
{"compound": "Cc1c(-c2ccc3c(c2)CC2(CCN(C(=O)NOC4CCCCO4)CC2)O3)ccc2ccnn12 (centres unmarked)", "reportedMeasurement": "5.00 to 6.00"}
{"compound": "Cc1cc(-c2ccc3c(c2)CCC2(CCN(C(=O)C4CC4)CC2)O3)cc2cccnc12 [Example 18, HCl]", "reportedMeasurement": "6.00 to 7.00"}
{"compound": "NC(=O)N1CCC2(CCc3cc(-c4cc5ccccc5o4)ccc3O2)CC1", "reportedMeasurement": "5.00 to 6.00"}
{"compound": "O=C(C1CC1)N1CCC2(CCc3cc(-c4ccccn4)ccc3O2)CC1 [Example 216, HCl]", "reportedMeasurement": "5.00 to 6.00"}
{"compound": "O=C([C@H]1CCCO1)N1CCC2(CCc3cc(-c4ccccn4)ccc3O2)CC1 [Example 217, HCl]", "reportedMeasurement": "5.00 to 6.00"}
{"compound": "O=C(CO)N1CCC2(CCc3cc(-c4ccc5cccnc5c4Cl)ccc3O2)CC1", "reportedMeasurement": "5.00 to 6.00"}
{"compound": "Cc1c(-c2ccc3c(c2)CCC2(CCN(C(=O)NC(C)C)CC2)O3)ccc2ccnn12", "reportedMeasurement": "6.00 to 7.00"}

====

# testSystem: recombinant human baculovirus-expressed GST-tagged FASN (Homo sapiens)
# Construct: GST
# testMethodNotes: biochemical
Counter-ions that a name gives are not always drawn.
endpointName: IC50

{"compound": "CCONC(=O)N1CCC2(CC1)OCc1cc(-c3ccc4cnc(C)cc4c3)ccc1O2", "reportedMeasurement": "1 to 99 nM"}
{"compound": "CCONC(=O)N1CCC2(CC1)OCc1cc(-c3ccc4cccnc4c3C)ccc1O2", "reportedMeasurement": "1 to 99 nM"}
{"compound": "Cc1c(-c2ccc3c(c2)COC2(CCN(C(=O)NOC(C)C)CC2)O3)ccc2ccnn12", "reportedMeasurement": "1 to 99 nM"}
{"compound": "CCC(=O)N1CCC2(CC1)OCc1cc(-c3ccncc3)ccc1O2 [Example 232, HCl]", "reportedMeasurement": "1000 to 10000 nM"}
{"compound": "CCC(=O)N1CCC2(CC1)OCc1cc(-c3ccc4cccnc4c3Cl)ccc1O2", "reportedMeasurement": "1 to 99 nM"}
{"compound": "COc1c(-c2ccc3c(c2)COC2(CCN(C(=O)C4CC4)CC2)O3)ccc2cccnc12", "reportedMeasurement": "1 to 99 nM"}
{"compound": "CCC(=O)N1CCC2(CC1)OCc1cc(-c3cnc4cccnc4c3)ccc1O2", "reportedMeasurement": "1000 to 10000 nM"}
{"compound": "Cc1nccc2cc(-c3ccc4c(c3)COC3(CCN(C(=O)C5CC5)CC3)O4)ccc12", "reportedMeasurement": "1 to 99 nM"}

====

# testSystem: recombinant human baculovirus-expressed GST-tagged FASN (Homo sapiens)
# Construct: GST
# testMethodNotes: biochemical
Structures can show the parent of a compound that is named as a salt.

{"compound": "Cc1nccc2cc(-c3ccc4c(c3)COC3(CCN(C(N)=O)CC3)O4)ccc12 [Example 194]", "testSystem": "recombinant human baculovirus-expressed GST-tagged FASN (Homo sapiens)", "IC50": "100 to 999 nM"}
{"compound": "CCC(=O)N1CCC2(CC1)OCc1cc(-c3ccc4c(C)nccc4c3)ccc1O2 [Example 21]", "testSystem": "recombinant human baculovirus-expressed GST-tagged FASN (Homo sapiens)", "IC50": "1 to 99 nM"}
{"compound": "NC(=O)N1CCC2(CC1)OCc1cc(-c3ccc4cccnc4c3Cl)ccc1O2 [Example 131]", "testSystem": "recombinant human baculovirus-expressed GST-tagged FASN (Homo sapiens)", "IC50": "100 to 999 nM"}
{"compound": "CCC(=O)N1CCC2(CC1)OCc1cc(-c3ccc4cccnc4c3OC)ccc1O2 [Example 55]", "testSystem": "recombinant human baculovirus-expressed GST-tagged FASN (Homo sapiens)", "IC50": "1 to 99 nM"}
{"compound": "O=C([C@H]1CCCO1)N1CCC2(CC1)OCc1cc(-c3cccnc3)ccc1O2 [Example 229]", "testSystem": "recombinant human baculovirus-expressed GST-tagged FASN (Homo sapiens)", "IC50": "100 to 999 nM"}
{"compound": "Cc1nccc2cc(-c3ccc4c(c3)COC3(CCN(C(=O)NO)CC3)O4)ccc12 [Example 199]", "testSystem": "recombinant human baculovirus-expressed GST-tagged FASN (Homo sapiens)", "IC50": "1000 to 10000 nM"}
{"compound": "CONC(=O)N1CCC2(CC1)OCc1cc(-c3ccc4c(C)nccc4c3)cc(OC)c1O2 [Example 248]", "testSystem": "recombinant human baculovirus-expressed GST-tagged FASN (Homo sapiens)", "IC50": "1000 to 10000 nM"}
{"compound": "CCC(=O)N1CCC2(CC1)OCc1cc(-c3ccccn3)ccc1O2 [Example 218, HCl]", "testSystem": "recombinant human baculovirus-expressed GST-tagged FASN (Homo sapiens)", "IC50": "1000 to 10000 nM"}

====

# testSystem: recombinant human baculovirus-expressed GST-tagged FASN (Homo sapiens)
# Construct: GST
# testMethodNotes: biochemical
# runConditions: 5 nM FASN, 150 μM NADPH, 10 μM acetyl-CoA, 25 μM malonyl-CoA, 90 minutes incubation; read-out: IC50 data for Compounds of Formula I, Activity
pIC50: −log10 of the molar value. Counter-ions that a name gives are not always drawn.

{"compound": "CCC(=O)N1CCC2(CCc3cc(-c4cc(C)c5ncccc5c4)ccc3O2)CC1 [Example 17, HCl]", "pIC50": "6.00 to 7.00"}
{"compound": "COc1c(-c2ccc3c(c2)CC2(CCN(C(=O)NOC4CCCCO4)CC2)O3)ccc2cccnc12 (centres unmarked) [Example 168]", "pIC50": "5.00 to 6.00"}
{"compound": "CCONC(=O)N1CCC2(CC1)Cc1cc(-c3ccc4ccnn4c3C)ccc1O2 [Example 169]", "pIC50": "5.00 to 6.00"}
{"compound": "CCONC(=O)N1CCC2(CCc3cc(-c4ccc5nccn5c4C)ccc3O2)CC1 [Example 107]", "pIC50": "7.00 to 9.00"}
{"compound": "O=C([C@H]1CCCO1)N1CCC2(CCc3cc(-c4cccnc4)ccc3O2)CC1 [Example 223, HCl]", "pIC50": "6.00 to 7.00"}
{"compound": "Cc1nccc2cc(-c3ccc4c(c3)CCC3(CCN(C(=O)[C@H]5CCCO5)CC3)O4)ccc12 [Example 1, HCl]", "pIC50": "7.00 to 9.00"}
{"compound": "Cc1c(-c2ccc3c(c2)C(=O)CC2(CCN(C(N)=O)CC2)O3)ccc2cccnc12 [Example 212]", "pIC50": "6.00 to 7.00"}
{"compound": "Cc1c(-c2ccc3c(c2)CCC2(CCN(C(=O)NC(C)C)CC2)O3)ccc2nccn12 [Example 111]", "pIC50": "6.00 to 7.00"}

====

# testSystem: recombinant human baculovirus-expressed GST-tagged FASN (Homo sapiens, UniProt P49327)
# Construct: GST
# Sequence (P49327 whole entry): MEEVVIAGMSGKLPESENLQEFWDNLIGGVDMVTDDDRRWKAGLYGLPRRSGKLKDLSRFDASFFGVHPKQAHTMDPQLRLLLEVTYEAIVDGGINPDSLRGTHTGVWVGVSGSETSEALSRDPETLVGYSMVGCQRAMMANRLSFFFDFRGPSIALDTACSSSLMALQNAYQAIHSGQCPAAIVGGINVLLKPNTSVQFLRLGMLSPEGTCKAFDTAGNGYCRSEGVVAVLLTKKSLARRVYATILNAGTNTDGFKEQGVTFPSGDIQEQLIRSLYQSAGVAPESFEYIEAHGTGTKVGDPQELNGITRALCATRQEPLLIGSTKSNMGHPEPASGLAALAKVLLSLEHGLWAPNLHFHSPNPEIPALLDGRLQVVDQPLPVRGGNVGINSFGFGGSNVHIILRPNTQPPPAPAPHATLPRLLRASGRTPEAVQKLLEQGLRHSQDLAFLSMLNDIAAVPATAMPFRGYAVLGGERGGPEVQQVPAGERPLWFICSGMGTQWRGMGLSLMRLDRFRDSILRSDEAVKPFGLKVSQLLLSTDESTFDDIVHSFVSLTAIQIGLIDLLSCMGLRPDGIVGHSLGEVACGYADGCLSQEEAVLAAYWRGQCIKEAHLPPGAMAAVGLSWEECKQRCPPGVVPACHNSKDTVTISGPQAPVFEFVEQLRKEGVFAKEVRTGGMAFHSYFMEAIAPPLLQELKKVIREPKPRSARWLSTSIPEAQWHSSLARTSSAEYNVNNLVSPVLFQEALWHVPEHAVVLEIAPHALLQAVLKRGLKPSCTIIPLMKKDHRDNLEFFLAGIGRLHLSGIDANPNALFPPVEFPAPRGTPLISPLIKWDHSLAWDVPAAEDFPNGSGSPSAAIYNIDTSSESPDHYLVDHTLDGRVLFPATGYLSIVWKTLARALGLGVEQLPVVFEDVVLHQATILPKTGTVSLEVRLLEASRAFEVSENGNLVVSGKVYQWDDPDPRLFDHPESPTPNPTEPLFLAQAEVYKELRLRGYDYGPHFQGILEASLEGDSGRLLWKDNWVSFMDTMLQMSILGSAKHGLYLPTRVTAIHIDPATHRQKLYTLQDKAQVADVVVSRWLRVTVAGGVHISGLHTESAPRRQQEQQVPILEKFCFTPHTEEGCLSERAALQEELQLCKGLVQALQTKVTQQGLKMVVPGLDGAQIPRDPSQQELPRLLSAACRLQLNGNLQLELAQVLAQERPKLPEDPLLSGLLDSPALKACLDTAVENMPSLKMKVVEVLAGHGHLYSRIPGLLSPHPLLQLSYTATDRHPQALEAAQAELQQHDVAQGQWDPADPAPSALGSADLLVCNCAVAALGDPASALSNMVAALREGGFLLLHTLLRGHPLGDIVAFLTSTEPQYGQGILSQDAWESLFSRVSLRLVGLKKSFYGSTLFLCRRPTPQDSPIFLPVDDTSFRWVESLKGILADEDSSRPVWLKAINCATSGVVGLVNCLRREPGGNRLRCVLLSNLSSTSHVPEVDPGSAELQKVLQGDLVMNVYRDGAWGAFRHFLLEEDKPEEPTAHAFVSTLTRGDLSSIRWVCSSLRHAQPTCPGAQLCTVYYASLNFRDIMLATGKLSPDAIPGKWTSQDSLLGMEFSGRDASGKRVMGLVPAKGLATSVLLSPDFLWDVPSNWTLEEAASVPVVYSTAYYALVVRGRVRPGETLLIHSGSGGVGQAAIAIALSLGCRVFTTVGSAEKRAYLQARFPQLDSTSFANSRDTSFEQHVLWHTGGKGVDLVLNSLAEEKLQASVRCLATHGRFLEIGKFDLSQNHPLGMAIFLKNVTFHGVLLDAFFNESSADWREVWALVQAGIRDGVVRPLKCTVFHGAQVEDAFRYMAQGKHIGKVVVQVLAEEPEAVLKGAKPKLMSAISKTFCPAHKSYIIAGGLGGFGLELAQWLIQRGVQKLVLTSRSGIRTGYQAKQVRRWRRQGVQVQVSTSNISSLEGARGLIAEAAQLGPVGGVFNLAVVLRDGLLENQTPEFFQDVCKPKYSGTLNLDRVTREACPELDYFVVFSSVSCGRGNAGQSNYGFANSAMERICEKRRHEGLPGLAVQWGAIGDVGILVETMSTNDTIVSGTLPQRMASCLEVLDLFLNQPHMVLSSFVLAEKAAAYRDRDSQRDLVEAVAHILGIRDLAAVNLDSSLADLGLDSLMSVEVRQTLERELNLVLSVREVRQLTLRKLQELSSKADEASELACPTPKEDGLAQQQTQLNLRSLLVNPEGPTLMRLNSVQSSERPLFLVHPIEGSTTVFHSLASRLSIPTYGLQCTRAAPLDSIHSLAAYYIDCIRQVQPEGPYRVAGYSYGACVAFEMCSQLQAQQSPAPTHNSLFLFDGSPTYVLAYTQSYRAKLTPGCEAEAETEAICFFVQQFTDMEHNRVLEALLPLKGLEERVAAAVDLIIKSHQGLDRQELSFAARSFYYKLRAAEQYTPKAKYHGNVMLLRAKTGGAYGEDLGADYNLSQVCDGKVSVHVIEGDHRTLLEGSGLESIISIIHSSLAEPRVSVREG
# testMethodNotes: biochemical
# runConditions: 5 nM FASN, 150 μM NADPH, 10 μM acetyl-CoA, 25 μM malonyl-CoA, 90 minutes incubation; read-out: IC50 data for Compounds of Formula I, Activity
Counter-ions that a name gives are not always drawn.

{"compound": "O=C(NOC1CCCCO1)N1CCC2(CCc3cc(-c4cc5ccccc5cn4)ccc3O2)CC1 (stereo not drawn)", "IC50": "100 to 999 nM"}
{"compound": "NC(=O)N1CCC2(CCc3cc(-c4cnc5sccc5c4)ccc3O2)CC1", "IC50": "1000 to 10000 nM"}
{"compound": "CONC(=O)N1CCC2(CCc3cc(-c4ccc5cccnc5c4C)c(C)cc3O2)CC1", "IC50": "100 to 999 nM"}
{"compound": "CCCONC(=O)N1CCC2(CCc3cc(-c4ccc5cccnc5c4C)ccc3O2)CC1", "IC50": "1 to 99 nM"}
{"compound": "CCONC(=O)N1CCC2(CCc3cc(-c4ccc5cccnc5c4C)ccc3O2)CC1", "IC50": "1 to 99 nM"}
{"compound": "COc1c(-c2ccc3c(c2)CCC2(CCN(C(=O)C4CC4)CC2)O3)ccc2cccnc12 [Example 15, HCl]", "IC50": "1 to 99 nM"}
{"compound": "NC(=O)N1CCC2(CCc3cc(-c4ccc5ocnc5c4)ccc3O2)CC1", "IC50": "1000 to 10000 nM"}
{"compound": "Cc1c(-c2ccc3c(c2)C(O)CC2(CCN(C(N)=O)CC2)O3)ccc2cccnc12 (stereo not drawn)", "IC50": "100 to 999 nM"}
{"compound": "Cc1c(-c2ccc3c(c2)CC2(CCN(C(N)=O)CC2)O3)cnc2ccccc12", "IC50": "1000 to 10000 nM"}
{"compound": "Cc1c(-c2ccc3c(c2)CCC2(CCN(C(=O)NOC(C)C)CC2)O3)ccc2nccn12", "IC50": "1 to 99 nM"}
{"compound": "CC(C)CNC(=O)N1CCC2(CCc3cc(-c4ccc5nccn5c4Cl)ccc3O2)CC1", "IC50": "1 to 99 nM"}
{"compound": "CC(C)ONC(=O)N1CCC2(CCc3cc(-c4ccc5nccn5c4Cl)ccc3O2)CC1", "IC50": "1 to 99 nM"}

Where do these numbers come from? They come from patent US12448392B2.
